Source of measurements: patent US20250171452A1

// reported IC50 per item
- TEST_SYSTEM: IDO2 (Homo sapiens (Human), UniProt Q6ZQW0)
- Sequence (Q6ZQW0 whole entry, species assumed): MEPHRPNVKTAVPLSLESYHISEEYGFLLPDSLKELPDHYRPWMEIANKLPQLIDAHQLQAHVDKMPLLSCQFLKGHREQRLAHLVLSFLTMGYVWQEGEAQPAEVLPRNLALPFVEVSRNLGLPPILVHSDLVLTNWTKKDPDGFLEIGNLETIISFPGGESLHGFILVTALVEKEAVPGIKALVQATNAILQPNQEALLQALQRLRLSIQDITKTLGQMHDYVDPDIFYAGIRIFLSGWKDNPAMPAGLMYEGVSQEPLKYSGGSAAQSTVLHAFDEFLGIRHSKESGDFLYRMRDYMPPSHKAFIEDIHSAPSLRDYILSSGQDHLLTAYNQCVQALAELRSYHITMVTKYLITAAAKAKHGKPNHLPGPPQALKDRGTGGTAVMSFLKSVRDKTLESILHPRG
- TEST_DETAILS: Cellular IDO2 assay, doxycycline and 5-methoxy-L-tryptophan medium, colorimetric
- Format: cell-based
- ASSAY_CONDITIONS: cellular level, 72 h incubation, signal at 480 nm
MEASUREMENT_TYPE: IC50

CN(C)S(=O)(=O)c1ccc2c(c1)C(=O)c1nc3cc(F)ccc3c(=O)n1-2 [Compound 79] = < 50 nM
O=C1c2cc(F)ccc2-n2c1nc1cccc(Br)c1c2=O [Compound 103] = < 50 nM
CS(=O)(=O)c1ccc2c(c1)C(=O)c1nc3cc(F)ccc3c(=O)n1-2 [Compound 14] = < 50 nM
NCCNC(=O)c1ccc2c(c1)/C(=N\O)c1nc3cc(Cl)ccc3c(=O)n1-2 [Compound 61] = > 500 nM
NC(=O)c1ccc2c(c1)Cc1nc3cc(F)ccc3c(=O)n1-2 [Compound 80] = 50 to 500 nM
N#Cc1ccc2c(c1)C(=O)c1nc3c(Br)ccc(F)c3c(=O)n1-2 [Compound 111] = 50 to 500 nM
Cc1cccc2c(=O)n3c(nc12)C(=O)c1cc([N+](=O)[O-])ccc1-3 [Compound 42] = < 50 nM

###

// reported IC50 per item
- TEST_SYSTEM: UniProt:Q6ZQW0
- TEST_DETAILS: Cellular IDO2 assay, doxycycline and 5-methoxy-L-tryptophan medium, colorimetric
- Format: cell-based
- ASSAY_CONDITIONS: cellular level, 72 h incubation, signal at 480 nm
MEASUREMENT_TYPE: IC50

O=C1c2cc([N+](=O)[O-])ccc2-n2c1nc1c(Br)c(F)ccc1c2=O [Compound 35] = < 50 nM
CC(=O)Nc1ccc2c(c1)C(=O)c1nc3cc(Cl)ccc3c(=O)n1-2 [Compound 7] = 50 to 500 nM
O=C1c2cc(Br)ccc2-n2c1nc1c(Nc3ccc(F)cc3)cccc1c2=O [Compound 121] = 50 to 500 nM

###

- TEST_SYSTEM: IDO2 (Homo sapiens (Human))
- TEST_DETAILS: Cellular IDO2 assay, doxycycline and 5-methoxy-L-tryptophan medium, colorimetric
- Assay type: cell-based
- ASSAY_CONDITIONS: cellular level, 72 h incubation, signal at 480 nm
Counter-ions that a name gives are not always drawn.
MEASUREMENT_TYPE: IC50

N#Cc1ccc2c(c1)C(=O)c1nc3cc(F)cc(F)c3c(=O)n1-2 = 0.05 to 0.5 µM
O=C(O)c1ccc2c(c1)C(=O)c1nc3cc(Cl)ccc3c(=O)n1-2 = > 0.5 µM
O=C1c2cc(F)ccc2-n2c1nc1c(Nc3ccc(F)cc3)cccc1c2=O = 0.05 to 0.5 µM
O=C1c2cc(C(=O)N3CCNCC3)ccc2-n2c1nc1cc(Cl)cc(Cl)c1c2=O = 0.05 to 0.5 µM
O=C1c2c(ccc(F)c2F)-n2c1nc1ccccc1c2=O = < 0.05 µM
O=C1c2cc([N+](=O)[O-])ccc2-n2c1nc1ccc(F)c(Cl)c1c2=O = < 0.05 µM
CNS(=O)(=O)c1ccc2c(c1)C(=O)c1nc3cc(F)ccc3c(=O)n1-2 = < 0.05 µM
Cc1cc(C)c2nc3n(c(=O)c2c1)-c1ccc([N+](=O)[O-])cc1C3=O = < 0.05 µM
O=C1c2cc(F)ccc2-n2c1nc1ccc(-c3c[nH]cn3)cc1c2=O = < 0.05 µM
NS(=O)(=O)NCc1ccc2c(=O)n3c(nc2c1)C(=O)c1cc(F)ccc1-3 = < 0.05 µM
O=C1c2cc([N+](=O)[O-])ccc2-n2c1nc1cnccc1c2=O = < 0.05 µM
O=C1c2cc(C(F)(F)F)ccc2-n2c1nc1ccccc1c2=O = < 0.05 µM
CON=C1c2cc(F)ccc2-n2c1nc1cc(CNC(C)=O)ccc1c2=O (stereo in doubt) = 0.05 to 0.5 µM
NC(=O)NCc1ccc2nc3n(c(=O)c2c1)-c1ccc(F)cc1C3=O = < 0.05 µM
NS(=O)(=O)NCCNC(=O)c1ccc2c(c1)C(=O)c1nc3cc(Cl)cc(Cl)c3c(=O)n1-2 = > 0.5 µM
CN(C)Cc1ccc2nc3n(c(=O)c2c1)-c1ccc(Br)cc1C3=O = < 0.05 µM
CC(C)(C)OC(=O)NCc1ccc2c(=O)n3c(nc2c1)C(=O)c1cc(F)ccc1-3 = < 0.05 µM
CO/N=C1/c2cc(F)ccc2-n2c1nc1ccc(CN(C)C)cc1c2=O [Compound 138, Trifluoroacetate Salt] = 0.05 to 0.5 µM
N=C(N)c1ccc2nc3n(c(=O)c2c1)-c1ccc(F)cc1C3=O = < 0.05 µM
O=c1c2ccccc2nc2n1-c1ccc([N+](=O)[O-])cc1C2 = 0.05 to 0.5 µM
N#Cc1ccc2c(c1)C(=O)c1nc3c(Oc4ccc(F)cc4)cccc3c(=O)n1-2 = < 0.05 µM
O=C1c2cc(SCc3ccccc3)ccc2-n2c1nc1cc(F)cc(F)c1c2=O = < 0.05 µM
NC(=O)c1ccc2nc3n(c(=O)c2c1)-c1ccc(F)cc1C3=O = < 0.05 µM
COC(=O)c1ccc2nc3n(c(=O)c2c1)-c1ccc(F)cc1C3=O = < 0.05 µM
O=C1c2cc(SCc3ccccc3)ccc2-n2c1nc1c(Cl)cccc1c2=O = < 0.05 µM
COc1cc(OC)nc(Nc2ccc3nc4n(c(=O)c3c2)-c2ccc(F)cc2C4=O)n1 = < 0.05 µM
O=C1c2cc([N+](=O)[O-])ccc2-n2c1nc1ccc(F)c(F)c1c2=O = 0.05 to 0.5 µM
